# System: human normal liver cell line LO2
# assayRemarks: MTT cytotoxicity assay, normal LO2 cells
# Format: cell-based
# conditionParameters: 48 h, mean ± SD from three independent experiments
pIC50: −log10 of the molar value.
assayEndpoint: pIC50

[
  {
    "compound": "N.N.[Cl][Pt][Cl] [cisplatin, reference compound]",
    "system": "human normal liver cell line LO2",
    "quantitativeReadout": 4.44
  }
]

* * *

# Tested on: CNE-2 human nasopharyngeal carcinoma cell line
# assayRemarks: MTT cytotoxicity assay, CNE-2
# Format: cell-based
# conditionParameters: 48 h, mean ± SD from three independent experiments
assayEndpoint: IC50 (µM)

[
  {
    "molecule": "N.N.[Cl][Pt][Cl] [cisplatin, reference compound]",
    "assayEndpoint": "IC50",
    "quantitativeReadout": 21
  }
]
